assayed.system: T1, GFP-9S library array, motif 4 ND N98F;D124F (synthetic construct, N98F;D124F)
T1 chain: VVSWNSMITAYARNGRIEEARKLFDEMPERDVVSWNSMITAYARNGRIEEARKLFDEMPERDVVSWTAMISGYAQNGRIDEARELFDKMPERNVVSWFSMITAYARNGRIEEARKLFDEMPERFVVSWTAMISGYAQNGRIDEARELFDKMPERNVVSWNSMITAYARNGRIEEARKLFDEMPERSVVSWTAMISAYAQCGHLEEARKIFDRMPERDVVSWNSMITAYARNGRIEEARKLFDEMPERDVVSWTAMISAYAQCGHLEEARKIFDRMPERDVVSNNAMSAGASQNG
test.details: high-throughput RNA pulldown from lysate on Ni-NTA beads; HRP: 50 mM Tris pH 8, 150 mM NaCl, 1 mM beta-mercaptoethanol, 50 ug/ml BSA, 3 ug/ml yeast RNA, 0.5% heparin; ITC and FP: Tris pH 8, 200 mM KCl, 5% glycerol; MST: 50 mM Tris pH 8, 200 mM NaCl, 1 mM DTT, BSA, heparin, 0.05% Tween 20
experimental.context: tags: N-terminal His-eGFP; label: 5' Cy5
Recorded measurements of Kd, one per entry

> print(dat)
                             binder  recorded.value
1  AUUAGACGUGA (ssRNA) [Cy5-rpoA-G]         92.1 nM

Alright, here's another binder for you.
Problem: Give the value of Kd reported for the following: AUUACACGUGA (ssRNA) [Cy5-rpoA]
Result: 76.4 nM
